Molecular target: JAK2 (Homo sapiens, UniProt O60674)
Construct: host or cells: baculovirus expression system
Sequence (O60674 whole entry): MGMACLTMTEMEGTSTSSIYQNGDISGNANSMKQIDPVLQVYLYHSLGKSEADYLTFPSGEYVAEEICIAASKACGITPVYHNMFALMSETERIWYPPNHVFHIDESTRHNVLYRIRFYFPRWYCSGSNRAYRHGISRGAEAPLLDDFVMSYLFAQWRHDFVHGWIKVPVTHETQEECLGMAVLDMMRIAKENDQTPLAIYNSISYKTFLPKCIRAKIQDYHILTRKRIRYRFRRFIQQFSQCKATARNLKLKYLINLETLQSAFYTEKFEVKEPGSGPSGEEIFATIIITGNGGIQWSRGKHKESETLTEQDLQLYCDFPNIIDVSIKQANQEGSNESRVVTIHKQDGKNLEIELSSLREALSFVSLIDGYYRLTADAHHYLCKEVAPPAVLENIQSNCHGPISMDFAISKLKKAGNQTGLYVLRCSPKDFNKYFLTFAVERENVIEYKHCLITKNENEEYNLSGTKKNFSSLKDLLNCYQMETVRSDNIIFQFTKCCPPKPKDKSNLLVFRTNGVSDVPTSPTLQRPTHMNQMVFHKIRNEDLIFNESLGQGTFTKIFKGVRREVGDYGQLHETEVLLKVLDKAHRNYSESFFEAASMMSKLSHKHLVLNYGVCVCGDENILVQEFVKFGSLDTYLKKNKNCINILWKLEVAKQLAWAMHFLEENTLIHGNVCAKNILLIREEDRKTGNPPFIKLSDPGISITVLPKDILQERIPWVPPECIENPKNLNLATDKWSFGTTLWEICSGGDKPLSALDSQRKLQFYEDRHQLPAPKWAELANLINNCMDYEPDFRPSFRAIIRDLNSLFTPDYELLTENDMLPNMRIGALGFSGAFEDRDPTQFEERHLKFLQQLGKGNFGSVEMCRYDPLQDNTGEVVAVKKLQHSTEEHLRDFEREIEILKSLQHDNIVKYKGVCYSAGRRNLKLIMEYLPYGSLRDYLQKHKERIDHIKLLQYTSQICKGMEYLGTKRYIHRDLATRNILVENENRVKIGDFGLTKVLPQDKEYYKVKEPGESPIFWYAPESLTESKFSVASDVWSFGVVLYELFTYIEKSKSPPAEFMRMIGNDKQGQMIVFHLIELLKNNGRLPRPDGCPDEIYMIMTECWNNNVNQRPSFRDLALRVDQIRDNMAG
Assay: Recombinant Human JAK2 Kinase Assay (TRF)
Format: biochemical
Settings: JAK2 Kinase Inhibition; read-out: JAK2 Potency
IC50 by entry:
observable: IC50

>>> test_value("COc1cc(N2CCC(N3CCOCC3)CC2)ccc1Nc1ncc2ccc(-c3ccccc3Cl)n2n1 [Example 1466]")
"< 0.1 µM"
>>> test_value("COc1ccc(-c2cc(Cl)c3cnc(Nc4ccc(C5CCN(CC(N)=O)CC5)cc4)nn23)cn1 [Example 1555]")
"< 0.1 µM"
>>> test_value("c1ccc(-c2ccc3cnc(NCc4cccnc4)nn23)cc1 [Example 12]")
"1 to 10 µM"
>>> test_value("FC(F)(F)c1ccc(Cl)c(-c2ccc3cnc(Nc4ccc(N5CCOCC5)cc4)nn23)c1 [Example 70]")
"< 0.1 µM"
>>> test_value("COc1cc(N2CCN(C)CC2)ccc1Nc1ncc2ccc(-c3ccccc3N(C)S(C)(=O)=O)n2n1 [Example 1457]")
"0.1 to 1 µM"
>>> test_value("CCN(c1ccccc1-c1ccc2cnc(Nc3ccc(N4CCC(N5CCOCC5)CC4)cc3OC)nn12)S(C)(=O)=O [Example 1460]")
"< 0.1 µM"
>>> test_value("O=C(c1cccc(Nc2ncc3ccc(-c4cccc(Cl)c4)n3n2)c1)N1CCOCC1 [Example 329]")
"< 0.1 µM"

###

Molecular target: ALK (Homo sapiens)
Construct: host or cells: baculovirus expression system
Sequence (Q9UM73 19-1620): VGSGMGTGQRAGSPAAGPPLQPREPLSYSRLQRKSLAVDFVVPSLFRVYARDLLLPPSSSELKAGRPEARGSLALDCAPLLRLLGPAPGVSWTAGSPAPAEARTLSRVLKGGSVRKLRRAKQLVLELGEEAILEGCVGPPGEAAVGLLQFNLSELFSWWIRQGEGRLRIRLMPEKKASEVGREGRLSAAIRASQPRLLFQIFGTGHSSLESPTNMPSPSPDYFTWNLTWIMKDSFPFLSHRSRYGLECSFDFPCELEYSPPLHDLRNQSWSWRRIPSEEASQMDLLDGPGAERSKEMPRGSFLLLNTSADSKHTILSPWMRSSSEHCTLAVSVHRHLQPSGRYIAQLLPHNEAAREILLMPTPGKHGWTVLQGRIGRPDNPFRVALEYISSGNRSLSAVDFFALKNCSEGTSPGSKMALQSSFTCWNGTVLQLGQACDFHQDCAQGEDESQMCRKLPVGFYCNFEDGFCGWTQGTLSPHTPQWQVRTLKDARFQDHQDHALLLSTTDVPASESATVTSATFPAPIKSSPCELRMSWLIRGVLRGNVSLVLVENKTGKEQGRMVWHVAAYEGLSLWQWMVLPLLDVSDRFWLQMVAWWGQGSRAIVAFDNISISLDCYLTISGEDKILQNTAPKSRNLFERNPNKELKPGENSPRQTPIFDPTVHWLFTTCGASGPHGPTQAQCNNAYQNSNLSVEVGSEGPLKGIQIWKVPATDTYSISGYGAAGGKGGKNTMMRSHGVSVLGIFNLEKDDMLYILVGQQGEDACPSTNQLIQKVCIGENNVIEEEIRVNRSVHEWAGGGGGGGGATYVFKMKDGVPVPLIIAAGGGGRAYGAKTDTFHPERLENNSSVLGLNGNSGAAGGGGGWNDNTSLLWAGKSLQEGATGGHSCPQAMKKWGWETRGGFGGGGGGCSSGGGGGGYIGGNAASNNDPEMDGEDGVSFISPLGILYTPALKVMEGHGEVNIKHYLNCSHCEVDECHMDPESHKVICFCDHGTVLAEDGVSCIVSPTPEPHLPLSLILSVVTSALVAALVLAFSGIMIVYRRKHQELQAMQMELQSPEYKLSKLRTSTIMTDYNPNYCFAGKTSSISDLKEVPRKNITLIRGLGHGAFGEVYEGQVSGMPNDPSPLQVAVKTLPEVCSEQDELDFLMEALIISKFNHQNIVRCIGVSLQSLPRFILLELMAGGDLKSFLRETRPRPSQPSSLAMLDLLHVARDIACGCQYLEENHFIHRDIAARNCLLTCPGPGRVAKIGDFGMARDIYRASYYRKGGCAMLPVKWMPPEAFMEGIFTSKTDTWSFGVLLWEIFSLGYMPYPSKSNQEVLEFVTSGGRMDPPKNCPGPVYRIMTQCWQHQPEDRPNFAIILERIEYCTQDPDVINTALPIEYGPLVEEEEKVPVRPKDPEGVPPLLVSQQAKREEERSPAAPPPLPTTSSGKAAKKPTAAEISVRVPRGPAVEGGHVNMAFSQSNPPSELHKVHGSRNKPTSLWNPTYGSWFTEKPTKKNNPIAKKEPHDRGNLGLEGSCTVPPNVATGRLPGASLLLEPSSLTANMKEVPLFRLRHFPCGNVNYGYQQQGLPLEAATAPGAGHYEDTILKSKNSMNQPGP
Test: ALK Kinase Assay (ELISA/TRF, PLC-γ substrate)
Assay type: biochemical
Conditions: ALK Kinase Inhibition; read-out: ALK Potency
observable: IC50

>>> test_value("CC(=O)Nc1cc(Nc2ncc3ccc(-c4cccnc4)n3n2)ccc1C(C)(C)C")
"0.1 to 1 µM"
>>> test_value("CN1CCN(c2ccc(Nc3ncc4ccc(-c5ccc(S(C)(=O)=O)cc5)n4n3)cc2F)CC1")
"0.1 to 1 µM"
>>> test_value("c1ccc(Sc2ccc3cnc(Nc4ccc(N5CCOCC5)cc4)nn23)cc1")
"0.1 to 1 µM"
>>> test_value("Oc1ccc(-c2ccc3cnc(Nc4cccc(N5CCOCC5)c4)nn23)cn1")
"> 10 µM"
>>> test_value("COc1ccc(-c2cc(Cl)c3cnc(Nc4ccc(C5CCN(CC(N)=O)CC5)cc4)nn23)cn1")
"0.1 to 1 µM"
>>> test_value("CSc1cc(N2CCN(C[C@H](C)O)CC2)c(F)cc1Nc1ncc2ccc(-c3ccccc3N(C)S(C)(=O)=O)n2n1")
"< 0.1 µM"
>>> test_value("COc1cc(C2CCN(CC(N)=O)CC2)ccc1Nc1ncc2ccc(-c3cccc4c3OC(F)(F)O4)n2n1")
"< 0.1 µM"
>>> test_value("COc1ccccc1-c1ccc2cnc(Nc3ccc(N4CCN(CC(N)=O)CC4)c(F)c3)nn12")
"0.1 to 1 µM"
>>> test_value("CC(C)(C)NS(=O)(=O)c1cccc(-c2ccc3cnc(Nc4ccc(C5(C#N)CCN(CC(N)=O)CC5)cc4)nn23)c1")
"0.1 to 1 µM"
>>> test_value("COc1ccccc1-c1ccc2cnc(Nc3ccc(C(=O)N4CCN(C)CC4)cc3)nn12")
"0.1 to 1 µM"
>>> test_value("NC(=O)CN1CCC(c2ccc(Nc3ncc4ccc(-c5cnccn5)n4n3)cc2)CC1")
"1 to 10 µM"
>>> test_value("C[C@@H](O)CN1CCN(c2cccc(Nc3ncc4ccc(-c5ccc(S(C)(=O)=O)cc5)n4n3)c2)CC1")
"0.1 to 1 µM"
>>> test_value("COCCN1CCc2ccc(Nc3ncc4ccc(-c5ccc(S(C)(=O)=O)cc5)n4n3)cc2CC1")
"0.1 to 1 µM"
>>> test_value("COc1ccc(-c2ccc3cnc(Nc4ccc5nc(CN6CCOCC6)[nH]c5c4)nn23)cn1")
"1 to 10 µM"
>>> test_value("CC(=O)N1CCCC(C)(C)c2ccc(Nc3ncc4ccc(-c5cccc(S(=O)(=O)NC(C)(C)C)c5)n4n3)cc21")
"1 to 10 µM"
>>> test_value("COc1ccccc1-c1ccc2cnc(Nc3ccc(OC)c(N4CCOCC4)c3)nn12")
"< 0.1 µM"
>>> test_value("CN1CCN(Cc2nc3cc(Nc4ncc5ccc(-c6ccc(S(C)(=O)=O)cc6)n5n4)ccc3[nH]2)CC1")
"1 to 10 µM"
>>> test_value("CC(C)(C)NS(=O)(=O)c1cccc(-c2ccc3cnc(Nc4cccc(N5CCCC5=O)c4)nn23)c1")
"1 to 10 µM"
>>> test_value("Cc1c(Nc2ncc3ccc(-c4ccccc4N(C)S(C)(=O)=O)n3n2)ccc2[nH]c(=O)oc12")
"0.1 to 1 µM"
>>> test_value("C[C@H](O)CN1CCN(c2ccc(Nc3ncc4ccc(-c5ccc(S(C)(=O)=O)cc5)n4n3)cc2)CC1")
"0.1 to 1 µM"
>>> test_value("COc1cncc(-c2ccc3cnc(Nc4ccc5c(c4)CCN(CC(=O)N(C)C)CC5)nn23)c1")
"0.1 to 1 µM"
>>> test_value("CC(=O)Nc1cc(Nc2ncc3ccc(-c4cccc(S(=O)(=O)NC(C)(C)C)c4)n3n2)ccc1C(C)(C)C")
"0.1 to 1 µM"
>>> test_value("CN(c1ccccc1-c1ccc2cnc(Nc3ccc(N4CCN(CC(N)=O)CC4)c(F)c3)nn12)S(C)(=O)=O")
"0.1 to 1 µM"
>>> test_value("CS(=O)(=O)c1ccc(-c2ccc3cnc(Nc4ccc(C5CCN(CC(N)=O)CC5)cc4)nn23)cc1")
"0.1 to 1 µM"
>>> test_value("C[C@H](O)CN1CCC(c2ccc(Nc3ncc4ccc(-c5cccc(S(C)(=O)=O)c5)n4n3)cc2)CC1")
"0.1 to 1 µM"
>>> test_value("CN1CCN(c2ccc(Nc3ncc4cc5ccccc5n4n3)cc2)CC1")
"0.1 to 1 µM"
>>> test_value("CN1CCN(CC2CCCN(c3ccc(Nc4ncc5ccc(-c6ccccc6N(C)S(C)(=O)=O)n5n4)cc3)C2)CC1 (stereo not drawn)")
"< 0.1 µM"

###

Target: ALK (Homo sapiens)
Construct: host or cells: baculovirus expression system
Assay: ALK Kinase Assay (ELISA/TRF, PLC-γ substrate)
Assay type: biochemical
Settings: ALK kinase inhibition, 1 μM ATP; read-out: ALK Potency
IC50 by entry:
observable: IC50

>>> test_value("Cc1nc2cc(Nc3ncc4ccc(-c5cccc(S(C)(=O)=O)c5)n4n3)ccc2o1")
"1 to 10 µM"
>>> test_value("CN(C)CC(=O)Nc1cccc(Nc2ncc3ccc(-c4cccc(S(=O)(=O)NC(C)(C)C)c4)n3n2)c1")
"< 0.1 µM"
>>> test_value("CN(c1ccccc1-c1ccc2cnc(Nc3ccc(N4CCN(CCO)CC4)cc3)nn12)S(C)(=O)=O")
"< 0.1 µM"
>>> test_value("CS(=O)(=O)c1ccc(-c2ccc3cnc(Nc4ccc5c(c4)CCC(N4CCOCC4)CC5)nn23)cc1 (centres unmarked)")
"0.1 to 1 µM"
>>> test_value("CN1CCN(c2cccc(Nc3ncc4ccc(-c5cnn(C)c5)n4n3)c2)CC1")
"1 to 10 µM"

###

Target: JAK2 (Homo sapiens)
Construct: host or cells: baculovirus expression system
Test: Recombinant Human JAK2 Kinase Assay (TRF)
Type: biochemical
Settings: JAK2 kinase inhibition, 0.2 μM ATP; read-out: JAK2 Potency
Experimental: Compounds were tested for their ability to inhibit the kinase activity of baculovirus-expressed JAK2 using the TRF detection system. […] The plates were coated first with 100 μL/well of 10 μg/mL Neutravidin (Pierce #31000, Rockford, Ill.) in TBS at 37° C. for 2 hours, followed by 100 μL/well of 1 μg/mL 15-mer peptide substrate (biotinyl-amino-hexanoyl-[…]-amide, Infinity Biotech Research and Resource, Aston, Pa.) at 37° C. for another hour. […]
pIC50: −log10 of the molar value.
observable: pIC50

>>> test_value("CN1CCCC1COc1cc(Nc2ncc3ccc(-c4cccc(S(C)(=O)=O)c4)n3n2)ccc1Cl (stereo not shown) [Example 1013]")
"> 7.00"
>>> test_value("CN1CCCC1COc1cc(Nc2ncc3ccc(-c4cccc(S(=O)(=O)NC(C)(C)C)c4)n3n2)ccc1Cl (stereo not shown) [Example 1009]")
"> 7.00"
>>> test_value("COc1cc(CCN2CCOCC2)ccc1Nc1ncc2ccc(-c3ccccc3OC)n2n1 [Example 492]")
"6.00 to 7.00"
>>> test_value("COc1cc(CN2CCC(O)CC2)ccc1Nc1ncc2ccc(-c3ccccc3OC)n2n1 [Example 1235]")
"6.00 to 7.00"
>>> test_value("COc1cc(C2CCN(CC(O)CF)CC2)ccc1Nc1ncc2ccc(-c3ccccc3N(C)S(C)(=O)=O)n2n1 (racemic) [Example 826]")
"6.00 to 7.00"
>>> test_value("COc1cc(C2CCN(C[C@@H](O)CO)CC2)c(F)cc1Nc1ncc2ccc(-c3ccccc3OC)n2n1 [Example 550]")
"6.00 to 7.00"
>>> test_value("CS(=O)(=O)c1cccc(-c2ccc3cnc(Nc4ccc(-c5cccnc5)cc4)nn23)c1 [Example 1087]")
"> 7.00"

Reference source: patent US8471005B2
